These data points were gathered from patent US20150329642A1.

- SYSTEM NAME: T1, cMetECDHis (human, UniProt P08581 25-932, limits assumed, biotinylated in the cross-block ELISA of Example 17)
- T1 construct: Expressed in HEK-293F cells; also called soluble cMetECDHis; biotinylated cMetECDHis
- PROTOCOL TEXT: cross-block ELISA; competitor 181
The binders listed here are annotated with their residual binding, % of no competitor.
Write down the numeric answer in % and omit the unit.

IgG1-1016-022 (antibody, V domains shown, also called TH1016-022; PC1016-022) VH: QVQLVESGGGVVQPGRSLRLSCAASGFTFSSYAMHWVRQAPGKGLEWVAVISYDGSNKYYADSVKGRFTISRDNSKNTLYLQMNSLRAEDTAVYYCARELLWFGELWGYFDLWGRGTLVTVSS VL: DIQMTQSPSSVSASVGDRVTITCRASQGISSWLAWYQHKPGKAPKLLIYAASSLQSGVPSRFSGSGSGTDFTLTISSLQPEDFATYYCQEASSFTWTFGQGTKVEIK: 107
anti-c-Met HuMab 008 (IgG1) (antibody, V domains shown, also called TH1016-008; PC1016-008) VH: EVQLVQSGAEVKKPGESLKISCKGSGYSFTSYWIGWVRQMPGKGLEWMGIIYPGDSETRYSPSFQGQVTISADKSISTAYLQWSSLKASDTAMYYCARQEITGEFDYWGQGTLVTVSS VL: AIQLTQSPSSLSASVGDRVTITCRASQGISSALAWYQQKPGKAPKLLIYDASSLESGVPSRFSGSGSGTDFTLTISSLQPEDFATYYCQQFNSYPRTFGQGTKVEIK: 111

// next entry
binder IgG1-1016-069 (antibody, V domains shown, also called clone 069; TH1016-069) VH: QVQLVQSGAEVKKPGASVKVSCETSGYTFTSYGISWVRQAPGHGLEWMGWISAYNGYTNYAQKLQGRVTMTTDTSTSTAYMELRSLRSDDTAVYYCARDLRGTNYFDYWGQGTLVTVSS VL: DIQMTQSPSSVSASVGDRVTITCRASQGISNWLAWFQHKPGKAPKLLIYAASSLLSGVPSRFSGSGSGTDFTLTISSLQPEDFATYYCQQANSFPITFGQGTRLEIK , residual binding, % of no competitor observed: 6.3
